The values you see were collected from patent US20170314054A1.

Target: T1, microbial transglutaminase from Streptomyces mobaraensis (MTG) (Streptomyces mobaraensis, UniProt P81453 77-407)
T1 sequence (looked up): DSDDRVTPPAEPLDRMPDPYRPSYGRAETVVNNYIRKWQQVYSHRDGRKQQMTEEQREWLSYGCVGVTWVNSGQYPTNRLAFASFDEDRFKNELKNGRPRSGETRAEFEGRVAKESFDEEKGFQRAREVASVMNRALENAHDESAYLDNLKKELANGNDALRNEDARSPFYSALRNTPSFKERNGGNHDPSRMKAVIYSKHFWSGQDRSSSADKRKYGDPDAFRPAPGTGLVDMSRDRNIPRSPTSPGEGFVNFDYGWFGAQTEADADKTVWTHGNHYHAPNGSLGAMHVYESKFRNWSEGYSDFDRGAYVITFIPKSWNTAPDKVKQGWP
Assay: cell-based or functional assay
No end group written: not given here.
Kindly supply the reported A (array MTG labeling signal with Z-Gln-Gly-CAD-biotin) values for the records listed here.
Answers are plain numbers.

>>> meas_value("RSKLG (not fully specified) [RSKLG (SEQ ID NO: 58)]")
13.4
>>> meas_value("KSKLA (also: flanked by G:S (3:1) linkers on peptide array) [KSKLA (SEQ ID NO: 55)]")
13.4

We next turn to a different binder, shown below.
Query :: # return recorded A (array MTG labeling signal with Z-Gln-Gly-CAD-biotin) for input QRSKL (also: flanked by G:S (3:1) linkers on peptide array) [QRSKL (SEQ ID NO: 73)]
Result :: 13.3
